Observed pIC50, system Estrogen receptor beta (Homo sapiens, UniProt Q92731).
Answers are plain numbers, as −log10 of the molar value.

// batch mode: one pIC50 value per listed entry
1. Oc1ccc2c(c1)O[C@H](c1ccc(OCCN3CCCCC3)cc1)C1=C2COc2cc(O)ccc21
2. Oc1ccc2c(c1)O[C@@H](c1ccc(OCCN3CCCCC3)cc1)C1=C2COc2cc(O)ccc21

**A:**
[7.69, 8.89]
